Values compiled from paper PMC5540273.

test system: MEK2; construct: gene MAP2K2; conditions: concentration: 1 μM, replicates: in singlicate; n = 1;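 note: KINOMEscan kinase panel screen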
property.name: %Inh (%)

compound | system.tested | numeric.readout
COc1ccc(C2=C(Nc3cccc(O)c3)C(=O)NC2=O)cc1 [SB-390766] | MEK2 | 0
COc1cccc(-c2nc(-c3ccccc3)[nH]c2-c2ccncc2)c1 [SB-610250] | MEK2 | 0
Cc1ccc(Nc2ccnc(Nc3ccc(C)c(F)c3)n2)cc1O.Cl [GW582868] | MEK2 | 0
O=C(O)C(F)(F)F.O=c1[nH]ccc2nc(N[C@@H]3CCNC3)nc(Nc3cc(Cl)cc(Cl)c3)c12 [GSK2188764] | MEK2 | 84
NCCC(NC(=O)c1cc(Br)c(-c2ccnc3[nH]ccc23)s1)c1ccccc1.O=C(O)C(F)(F)F.O=C(O)C(F)(F)F (centres unmarked) [GSK1307810] | MEK2 | 0
Cc1cc(-c2ccnc(Nc3cccc(C#N)c3)n2)cc(C)c1O [GSK1440913] | MEK2 | 0
Nc1ncnc2scc(-c3ccc(NC(=O)Cc4cc(F)ccc4F)cc3)c12.O=C(O)C(F)(F)F [SB-731254-M] | MEK2 | 19
COC(=O)Nc1nc2cc(Oc3ccc(NC(=O)Nc4cccc(SC)c4)cc3)ccc2[nH]1.Cl [GW697999] | MEK2 | 0

---

test system: MAP3K2; conditions: concentration: 1 μM, replicates: in singlicate; n = 1
Known %Inh of a selection of compounds

compound | %Inh, %
CSc1ccc(NC2=C(c3ccc(Cl)cc3)C(=O)NC2=O)cc1 [SB-317658] | 1
Cn1cc(-c2ccc3c(c2)CCN3C(=O)Cc2cc(F)cc(F)c2F)c2c(N)ncnc21 [GSK2634140] | 87
Cn1cc(-c2cnc(N)c3c(-c4ccc5c(c4)CCN5C(=O)Cc4ccccc4)csc23)cn1 [GSK2593074] | 75
O=C(Nc1n[nH]c2nc(-c3ccccc3)ccc12)C1CC1 [SB-708999] | 6
COc1cccc(NC(=O)NCCNc2ccnc(Nc3ccc(F)cc3)n2)c1 [GSK1379879] | 0
Nc1ncc(-c2cn[nH]c2)c2scc(-c3ccc4c(c3)CCN4C(=O)Cc3ccccc3)c12 [GSK2593067] | 91
Cc1ccc(O)cc1Nc1ccnc2ccc(C(C)(C)C)cc12 [GW856805] | 32
CCn1c(-c2nonc2N)nc2c(-c3ccccc3)ncc(OCCCN)c21.O=C(O)C(F)(F)F.O=C(O)C(F)(F)F [GSK260205] | 98.2
O=C(Nc1n[nH]c2nc(-c3ccccc3O)ccc12)C1CC1 [SB-711880] | 19

---

test system: MARK1; conditions: concentration: 1 μM, replicates: in singlicate; n = 1
Known %Inh of a selection of molecules

smiles.string | %Inh, %
COC(=O)Nc1nc2ccc(Oc3ccc(NC(=O)Nc4cc(C(F)(F)F)ccc4F)cc3)cc2[nH]1.Cl | 0
Cn1cc(-c2cnc(N)c3c(-c4ccc5c(c4)CCN5C(=O)Cc4ccccc4)csc23)cn1 | 0
CCNC(=O)/C=C/c1n[nH]c2cc(Sc3ccccc3C(=O)NC)ccc12 | 0
COc1ccc(C)c(Nc2ccnc(Nc3ccc(-c4cnc[nH]4)cc3)n2)c1.Cl | 9

---

Known %Inh of a selection of compounds
system: MST3; construct: gene STK24; conditions: concentration: 1 μM, replicates: in singlicate; n = 1

smiles.string | %Inh, %
Fc1cc(Cl)ccc1Nc1ccnc2cc(-c3ccc(CN4CCSCC4)o3)ccc12 | 0
Cc1ccc(O)cc1Nc1ccnc2ccc(C(C)(C)C)cc12 | 12
CCOc1nccc(-c2c(-c3ccc(F)cc3)ncn2C2CCNCC2)n1 | 13
CSc1ccc(NC2=C(c3ccc(Cl)cc3)C(=O)NC2=O)cc1 | 0
Nc1ncc(-c2cn[nH]c2)c2scc(-c3ccc4c(c3)CCN4C(=O)Cc3ccccc3)c12 | 0
CC(=O)Nc1cn2nc(Oc3cccc(NC(=O)c4cccc(C(F)(F)F)c4)c3)ccc2n1 | 1
CS(=O)(=O)c1cccc(CNc2nc(Nc3ccc4c(c3)CCC(=O)N4)ncc2C(F)(F)F)c1 | 0
Cn1cc(-c2ccc3c(c2)CCN3C(=O)Cc2cc(F)cc(C(F)(F)F)c2)c2c(N)ncnc21 | 0
